System: KM12 colon
Experiment: NCI tumour cell line growth inhibition, 48 h
Readout kind: TGI

Take a look at these entries with their results.
Compound | Study system | Readout kind | Readout value
COc1ccc(/C=C/C=C2C(=O)NC(=S)NC2=O)cc1 | KM12 colon | TGI | 34.6 µM
Oc1ccc(Br)cc1CN1CCN(Cc2ccc(Cl)cc2)CC1 | KM12 colon | TGI | > 100 µM
CN(CCN(C)Cc1ccc(Cl)c(Cl)c1)CCN1CCCC1 | KM12 colon | TGI | > 100 µM

Okay, here is my list. What is TGI for each of these?
1. COC(=O)[C@@]12CC3CN(Cc4c1[nH]c1ccccc41)C2CC3=O
2. O=C(CC1Sc2ccccc2NC1=O)Nc1ccc([N+](=O)[O-])cc1[N+](=O)[O-] (stereo unspecified)
3. COc1cc(/C=C/C(=O)OC[C@]23O[C@H]2[C@@H](OC2OC(C)C(O)C(O)C2O)C2C=CO[C@@H](OC4OC(CO)C(O)C(O)C4O)C23)ccc1O (stereo partly specified)

> 100 µM
59.5 µM
> 100 µM

These data points were gathered from PubChem BioAssay (NCI).
